experiment: Confirmation Concentration-Response Assay for lipid storage modulators; settings: Drosophila S3 cells, lipid droplet BODIPY/CellTracker ratio, 18-24 h; series mostly up to 46.1 µM; note: nearly all actives have a fitted effect of over 80% in size
Inconclusive results are not listed. Calls of active or inactive are those of the source. Calls come from the whole dose curve; as a rule, active = well fitted inhibition curve with a large enough effect; inconclusive = small, poorly fitted or top-dose-only effect, or effect the other way, or another doubt; inactive = no such curve, though single readings can be large or run the other way.
Thanks in advance; please answer with one of these: 1.0 = active, 0.0 = inactive

Some solved cases for reference:
- Compound: "COc1ccc(CCNC(=O)CSC2=NS(=O)(=O)c3ccccc3N2)cc1OC"
  Label class: 0.0
- Compound: "CC(=O)N1CCN(C(=O)C2(NC(=O)Nc3ccc(C)cc3)CCCCC2)CC1"
  Label class: 0.0
- Compound: "Cc1cc(Nc2ccccc2)nc(NCc2ccccc2)n1"
  Label class: 1.0
- Compound: "Cn1nc(C(C)(C)C)cc1C(=O)NCc1ccc2c(c1)OCO2"
  Label class: 1.0
- Compound: "CCC1CCCCN1C(=O)c1cc(COc2ccc3ncccc3c2)on1 (stereo not given)"
  Label class: 1.0

Query: State the result this test recorded for `CC(C)(C)c1cc[n+](C2=C([O-])c3ccccc3C(=O)/C2=N\S(=O)(=O)c2cccs2)cc1` .
Reply: 1.0
